assayed_system: Indoleamine 2,3-dioxygenase 1 (Homo sapiens, UniProt P14902)
Sequence (P14902 whole entry): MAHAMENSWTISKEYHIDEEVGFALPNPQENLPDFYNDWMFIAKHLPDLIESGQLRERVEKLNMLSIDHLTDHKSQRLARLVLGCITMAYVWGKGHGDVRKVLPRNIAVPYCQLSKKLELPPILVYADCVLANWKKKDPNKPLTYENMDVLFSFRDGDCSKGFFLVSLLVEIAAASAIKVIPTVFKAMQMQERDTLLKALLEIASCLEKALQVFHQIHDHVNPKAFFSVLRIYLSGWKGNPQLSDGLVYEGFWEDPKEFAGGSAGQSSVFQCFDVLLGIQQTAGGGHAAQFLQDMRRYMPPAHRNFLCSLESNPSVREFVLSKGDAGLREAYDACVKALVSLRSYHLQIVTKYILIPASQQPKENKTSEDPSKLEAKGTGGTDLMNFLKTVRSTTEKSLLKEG
protocol_notes: Enzyme Inhibition Assay
condition_notes: pH 6.5; 37 °C
pIC50: −log10 of the molar value.
observation_type: pIC50

1 = O=C1CC(=O)c2ccccc2C1=O
2 = CC1=CC(=O)c2ccccc2C1=O
In: Between 1 and 2 , whose recorded pIC50 is greater? API: response body contains the label of the selected item.
Out: 2
